measured_on: Muscarinic acetylcholine receptors; M2 & M3 (Homo sapiens) (UniProt P20309+P08172)
method: Selectivity for cloned muscarinic M3 receptor over cloned muscarinic M2 receptor
Under this convention, condition met denotes Ratio IC50 strictly below 3 and condition not met denotes Ratio IC50 at or above 3.

Could you please tell me whether Ratio IC50 recorded for `C[N+]1(C)[C@@H]2CC[C@H]1C[C@H](OC(=O)N(Cc1ccccc1)c1ccsc1)C2.[Br-]` is less than 3?
condition not met

Could you please tell me whether Ratio IC50 recorded for `CN1[C@@H]2CC[C@H]1C[C@H](OC(=O)N(Cc1ccsc1)c1ccsc1)C2` is less than 3?
condition met

Could you please tell me whether Ratio IC50 recorded for `C[N+]1(C)[C@@H]2CC[C@H]1C[C@H](OC(=O)N(Cc1ccoc1)c1ccccc1)C2` is less than 3?
condition not met

Could you please tell me whether Ratio IC50 recorded for `C[N+]1(C)[C@@H]2CC[C@H]1C[C@@H](OC(=O)N(Cc1ccc(C#N)cc1)c1ccccc1)C2` is less than 3?
condition met

Could you please tell me whether Ratio IC50 recorded for `C[N+]1(C)[C@@H]2CC[C@H]1C[C@H](OC(=O)N(Cc1ccccc1)c1cccs1)C2.[Br-]` is less than 3?
condition not met

Could you please tell me whether Ratio IC50 recorded for `CN1[C@@H]2CC[C@H]1C[C@@H](OC(=O)N(CC1CCCCC1)c1ccsc1)C2` is less than 3?
condition met

Could you please tell me whether Ratio IC50 recorded for `Cc1ccsc1CN(C(=O)O[C@H]1C[C@H]2CC[C@@H](C1)N2C)c1ccccc1` is less than 3?
condition met

Could you please tell me whether Ratio IC50 recorded for `COc1cccc(CN(C(=O)O[C@@H]2C[C@H]3CC[C@@H](C2)N3C)c2ccccc2)c1` is less than 3?
condition met

Could you please tell me whether Ratio IC50 recorded for `C[N+]1(C)[C@@H]2CC[C@H]1C[C@H](OC(=O)N(Cc1ccccc1Br)c1ccccc1)C2` is less than 3?
condition met

Could you please tell me whether Ratio IC50 recorded for `CN1[C@@H]2CC[C@H]1C[C@H](OC(=O)N(Cc1ccc(Br)cc1)c1ccccc1)C2` is less than 3?
condition met

Could you please tell me whether Ratio IC50 recorded for `Cc1ccoc1CN(C(=O)O[C@H]1C[C@H]2CC[C@@H](C1)[N+]2(C)C)c1ccccc1` is less than 3?
condition not met

Could you please tell me whether Ratio IC50 recorded for `CN1[C@@H]2CC[C@H]1C[C@H](OC(=O)N(Cc1ccccc1)c1cccs1)C2` is less than 3?
condition met

Could you please tell me whether Ratio IC50 recorded for `COc1ccc(CN(C(=O)O[C@H]2C[C@H]3CC[C@@H](C2)[N+]3(C)C)c2ccccc2)cc1` is less than 3?
condition not met

Could you please tell me whether Ratio IC50 recorded for `C[N+]1(C)[C@@H]2CC[C@H]1C[C@@H](OC(=O)N(Cc1cccc(C#N)c1)c1ccsc1)C2` is less than 3?
condition not met

Could you please tell me whether Ratio IC50 recorded for `C[N+]1(C)[C@@H]2CC[C@H]1C[C@H](OC(=O)N(Cc1cccc(Br)c1)c1ccccc1)C2` is less than 3?
condition met

---

measured_on: Muscarinic acetylcholine receptor M2 (Homo sapiens)
Sequence (P08172 whole entry): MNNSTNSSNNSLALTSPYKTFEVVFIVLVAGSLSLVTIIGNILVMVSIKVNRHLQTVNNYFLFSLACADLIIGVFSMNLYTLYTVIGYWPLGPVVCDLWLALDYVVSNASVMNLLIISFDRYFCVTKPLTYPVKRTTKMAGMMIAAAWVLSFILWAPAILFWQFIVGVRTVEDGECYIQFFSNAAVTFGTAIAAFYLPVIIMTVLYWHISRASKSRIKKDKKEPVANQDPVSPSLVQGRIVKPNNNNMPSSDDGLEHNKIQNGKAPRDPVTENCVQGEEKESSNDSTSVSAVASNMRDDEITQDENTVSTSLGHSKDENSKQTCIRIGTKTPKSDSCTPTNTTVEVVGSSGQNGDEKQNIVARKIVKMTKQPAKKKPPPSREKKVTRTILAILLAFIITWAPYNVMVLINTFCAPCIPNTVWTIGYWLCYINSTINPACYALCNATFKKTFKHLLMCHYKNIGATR
method: Antagonist activity at cloned muscarinic M2 receptor expressed in CHO cells by measuring calcium mobilization
measured_quantity: IC50 (nM)
Answer in nM, number only, no unit symbol.

Check Muscarinic acetylcholine receptor M2 (Homo sapiens) data and give IC50 for `Cc1ccsc1CN(C(=O)O[C@H]1C[C@H]2CC[C@@H](C1)[N+]2(C)C)c1ccccc1` .
34.7

Check Muscarinic acetylcholine receptor M2 (Homo sapiens) data and give IC50 for `CN1[C@@H]2CC[C@H]1C[C@H](OC(=O)N(Cc1ccccc1)c1ccsc1)C2` .
39.1

Check Muscarinic acetylcholine receptor M2 (Homo sapiens) data and give IC50 for `Cc1ccc(CN(C(=O)O[C@@H]2C[C@H]3CC[C@@H](C2)[N+]3(C)C)c2ccccc2)s1` .
60.8

Check Muscarinic acetylcholine receptor M2 (Homo sapiens) data and give IC50 for `CN1[C@@H]2CC[C@H]1C[C@@H](OC(=O)N(Cc1ccc(C#N)cc1)c1ccccc1)C2` .
1350

Check Muscarinic acetylcholine receptor M2 (Homo sapiens) data and give IC50 for `C[N+]1(C)[C@@H]2CC[C@H]1C[C@H](OC(=O)N(Cc1ccc(Br)cc1)c1ccccc1)C2` .
400

Check Muscarinic acetylcholine receptor M2 (Homo sapiens) data and give IC50 for `C[N+]1(C)[C@@H]2CC[C@H]1C[C@H](OC(=O)N(Cc1ccccc1)c1cccs1)C2.[Br-]` .
13.8

Check Muscarinic acetylcholine receptor M2 (Homo sapiens) data and give IC50 for `C[N+]1(C)[C@@H]2CC[C@H]1C[C@@H](OC(=O)N(Cc1ccsc1)c1ccccc1)C2.[Br-]` .
30.2

Check Muscarinic acetylcholine receptor M2 (Homo sapiens) data and give IC50 for `Cc1ccoc1CN(C(=O)O[C@H]1C[C@H]2CC[C@@H](C1)[N+]2(C)C)c1ccccc1` .
229

Check Muscarinic acetylcholine receptor M2 (Homo sapiens) data and give IC50 for `CN1[C@@H]2CC[C@H]1C[C@H](OC(=O)N(Cc1cccs1)c1ccccc1)C2` .
38.2

Check Muscarinic acetylcholine receptor M2 (Homo sapiens) data and give IC50 for `CN1[C@@H]2CC[C@H]1C[C@@H](OC(=O)N(CC1CCCCC1)c1ccsc1)C2` .
271

Check Muscarinic acetylcholine receptor M2 (Homo sapiens) data and give IC50 for `C[N+]1(C)[C@@H]2CC[C@H]1C[C@H](OC(=O)N(CC1CCCCC1)c1ccsc1)C2` .
55.9

Check Muscarinic acetylcholine receptor M2 (Homo sapiens) data and give IC50 for `Cc1ccoc1CN(C(=O)O[C@@H]1C[C@H]2CC[C@@H](C1)N2C)c1ccccc1` .
468

Check Muscarinic acetylcholine receptor M2 (Homo sapiens) data and give IC50 for `CN1[C@@H]2CC[C@H]1C[C@H](OC(=O)N(Cc1ccoc1)c1ccccc1)C2` .
82.5

Check Muscarinic acetylcholine receptor M2 (Homo sapiens) data and give IC50 for `C[N+]1(C)[C@@H]2CC[C@H]1C[C@@H](OC(=O)N(Cc1cccc(C#N)c1)c1ccsc1)C2` .
638

Check Muscarinic acetylcholine receptor M2 (Homo sapiens) data and give IC50 for `Cc1ccc(CN(C(=O)O[C@@H]2C[C@H]3CC[C@@H](C2)N3C)c2ccccc2)s1` .
410

Check Muscarinic acetylcholine receptor M2 (Homo sapiens) data and give IC50 for `CN1[C@@H]2CC[C@H]1C[C@@H](OC(=O)N(Cc1cccc(Br)c1)c1ccccc1)C2` .
2160

Check Muscarinic acetylcholine receptor M2 (Homo sapiens) data and give IC50 for `C[N+]1(C)[C@@H]2CC[C@H]1C[C@H](OC(=O)N(Cc1ccoc1)c1ccccc1)C2` .
53.7

Check Muscarinic acetylcholine receptor M2 (Homo sapiens) data and give IC50 for `COc1ccc(CN(C(=O)O[C@H]2C[C@H]3CC[C@@H](C2)N3C)c2ccccc2)cc1` .
1360

Check Muscarinic acetylcholine receptor M2 (Homo sapiens) data and give IC50 for `CN1[C@@H]2CC[C@H]1C[C@H](OC(=O)N(Cc1ccc(Br)cc1)c1ccccc1)C2` .
1420

---

Kindly state Ratio IC50 for each of the entries shown.
measured_on: Muscarinic acetylcholine receptor M1 and M3 (Homo sapiens) (UniProt P20309+P11229)
Sequence (P11229 whole entry, looked up): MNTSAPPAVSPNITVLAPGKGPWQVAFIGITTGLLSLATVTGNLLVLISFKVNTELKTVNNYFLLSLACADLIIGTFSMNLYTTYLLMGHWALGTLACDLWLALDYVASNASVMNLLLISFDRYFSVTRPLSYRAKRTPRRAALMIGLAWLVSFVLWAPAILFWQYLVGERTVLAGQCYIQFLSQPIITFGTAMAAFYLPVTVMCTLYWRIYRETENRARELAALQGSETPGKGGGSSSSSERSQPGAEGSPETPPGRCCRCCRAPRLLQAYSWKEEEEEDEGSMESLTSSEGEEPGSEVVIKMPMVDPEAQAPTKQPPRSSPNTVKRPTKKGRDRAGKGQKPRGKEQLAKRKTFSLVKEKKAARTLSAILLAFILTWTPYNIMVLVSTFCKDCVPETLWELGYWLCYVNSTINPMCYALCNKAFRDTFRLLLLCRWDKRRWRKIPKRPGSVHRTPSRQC
Sequence (P20309 whole entry, looked up): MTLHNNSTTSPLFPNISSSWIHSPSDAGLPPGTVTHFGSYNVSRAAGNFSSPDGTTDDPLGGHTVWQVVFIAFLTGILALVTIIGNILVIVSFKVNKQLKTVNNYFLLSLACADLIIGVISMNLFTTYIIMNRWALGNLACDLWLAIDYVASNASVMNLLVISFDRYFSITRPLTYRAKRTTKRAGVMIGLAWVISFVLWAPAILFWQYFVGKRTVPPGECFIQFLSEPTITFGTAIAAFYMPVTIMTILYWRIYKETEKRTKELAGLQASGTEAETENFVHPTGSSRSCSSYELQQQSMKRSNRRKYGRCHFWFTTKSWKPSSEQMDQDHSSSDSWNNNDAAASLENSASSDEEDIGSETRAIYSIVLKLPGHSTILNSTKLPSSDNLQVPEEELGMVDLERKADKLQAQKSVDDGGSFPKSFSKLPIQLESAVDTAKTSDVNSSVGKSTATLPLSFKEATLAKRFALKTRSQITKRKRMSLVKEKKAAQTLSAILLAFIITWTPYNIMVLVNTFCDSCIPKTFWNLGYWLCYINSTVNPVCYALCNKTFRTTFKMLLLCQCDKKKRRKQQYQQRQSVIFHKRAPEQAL
method: Selectivity for cloned muscarinic M3 receptor over cloned muscarinic M1 receptor
Could you respond with only the numeric value?

Complete the entry with Ratio IC50 for `C[N+]1(C)[C@@H]2CC[C@H]1C[C@H](OC(=O)N(Cc1ccc(Br)cc1)c1ccccc1)C2`
0.6

Complete the entry with Ratio IC50 for `CN1[C@@H]2CC[C@H]1C[C@H](OC(=O)N(Cc1ccccc1)c1cccs1)C2`
2

Complete the entry with Ratio IC50 for `C[N+]1(C)[C@@H]2CC[C@H]1C[C@@H](OC(=O)N(Cc1ccsc1)c1ccsc1)C2.[Br-]`
1.6

---

measured_on: Muscarinic acetylcholine receptors; M2 & M3 (Homo sapiens) (UniProt P20309+P08172)
method: Selectivity for cloned muscarinic M3 receptor over cloned muscarinic M2 receptor
# class assignment by measured Ratio IC50: low group: < 1; middle group: ≥ 1 and < 4; high group: ≥ 4

Which Ratio IC50 band matches `C[N+]1(C)[C@@H]2CC[C@H]1C[C@@H](OC(=O)N(Cc1ccsc1)c1ccccc1)C2.[Br-]` ?
high group

Which Ratio IC50 band matches `CN1[C@@H]2CC[C@H]1C[C@@H](OC(=O)N(Cc1ccccc1Br)c1ccccc1)C2` ?
middle group

Which Ratio IC50 band matches `CN1[C@@H]2CC[C@H]1C[C@@H](OC(=O)N(Cc1ccc(C#N)cc1)c1ccccc1)C2` ?
middle group

Which Ratio IC50 band matches `CN1[C@@H]2CC[C@H]1C[C@@H](OC(=O)N(Cc1ccsc1)c1ccccc1)C2` ?
middle group

Which Ratio IC50 band matches `CN1[C@@H]2CC[C@H]1C[C@H](OC(=O)N(Cc1ccccc1)c1ccsc1)C2` ?
middle group

Which Ratio IC50 band matches `C[N+]1(C)[C@@H]2CC[C@H]1C[C@H](OC(=O)N(Cc1cccs1)c1ccccc1)C2.[Br-]` ?
high group

Which Ratio IC50 band matches `Cc1ccc(CN(C(=O)O[C@@H]2C[C@H]3CC[C@@H](C2)[N+]3(C)C)c2ccccc2)s1` ?
middle group

Which Ratio IC50 band matches `Cc1ccc(CN(C(=O)O[C@@H]2C[C@H]3CC[C@@H](C2)N3C)c2ccccc2)s1` ?
low group

Which Ratio IC50 band matches `CN1[C@@H]2CC[C@H]1C[C@@H](OC(=O)N(Cc1cccc(Br)c1)c1ccccc1)C2` ?
low group

Which Ratio IC50 band matches `C[N+]1(C)[C@@H]2CC[C@H]1C[C@H](OC(=O)N(CC1CCCCC1)c1ccsc1)C2` ?
high group

Which Ratio IC50 band matches `CN1[C@@H]2CC[C@H]1C[C@@H](OC(=O)N(Cc1ccc(C#N)cc1)c1ccsc1)C2` ?
middle group

Cited source for all entries: ChEMBL document CHEMBL1137565
